Examples of compounds with documented % Inhibition (Single Point Data) follow.
target: Human Cav3.1 calcium channel (Homo sapiens, UniProt O43497); construct: expressed in transfected cells; host or cells: HEK-293 natClytin/TASK1+Cav3.1 cell line; assay: Human Cav3.1 calcium channel patch clamp assay (SyncroPatch 384PE; single point and IC50, voltage dependent block); type: cell-based; details: Testing Conc 1.25; HEK-293 natClytin/TASK1+Cav3.1 cell line, patch clamp
Sequence (O43497 whole entry): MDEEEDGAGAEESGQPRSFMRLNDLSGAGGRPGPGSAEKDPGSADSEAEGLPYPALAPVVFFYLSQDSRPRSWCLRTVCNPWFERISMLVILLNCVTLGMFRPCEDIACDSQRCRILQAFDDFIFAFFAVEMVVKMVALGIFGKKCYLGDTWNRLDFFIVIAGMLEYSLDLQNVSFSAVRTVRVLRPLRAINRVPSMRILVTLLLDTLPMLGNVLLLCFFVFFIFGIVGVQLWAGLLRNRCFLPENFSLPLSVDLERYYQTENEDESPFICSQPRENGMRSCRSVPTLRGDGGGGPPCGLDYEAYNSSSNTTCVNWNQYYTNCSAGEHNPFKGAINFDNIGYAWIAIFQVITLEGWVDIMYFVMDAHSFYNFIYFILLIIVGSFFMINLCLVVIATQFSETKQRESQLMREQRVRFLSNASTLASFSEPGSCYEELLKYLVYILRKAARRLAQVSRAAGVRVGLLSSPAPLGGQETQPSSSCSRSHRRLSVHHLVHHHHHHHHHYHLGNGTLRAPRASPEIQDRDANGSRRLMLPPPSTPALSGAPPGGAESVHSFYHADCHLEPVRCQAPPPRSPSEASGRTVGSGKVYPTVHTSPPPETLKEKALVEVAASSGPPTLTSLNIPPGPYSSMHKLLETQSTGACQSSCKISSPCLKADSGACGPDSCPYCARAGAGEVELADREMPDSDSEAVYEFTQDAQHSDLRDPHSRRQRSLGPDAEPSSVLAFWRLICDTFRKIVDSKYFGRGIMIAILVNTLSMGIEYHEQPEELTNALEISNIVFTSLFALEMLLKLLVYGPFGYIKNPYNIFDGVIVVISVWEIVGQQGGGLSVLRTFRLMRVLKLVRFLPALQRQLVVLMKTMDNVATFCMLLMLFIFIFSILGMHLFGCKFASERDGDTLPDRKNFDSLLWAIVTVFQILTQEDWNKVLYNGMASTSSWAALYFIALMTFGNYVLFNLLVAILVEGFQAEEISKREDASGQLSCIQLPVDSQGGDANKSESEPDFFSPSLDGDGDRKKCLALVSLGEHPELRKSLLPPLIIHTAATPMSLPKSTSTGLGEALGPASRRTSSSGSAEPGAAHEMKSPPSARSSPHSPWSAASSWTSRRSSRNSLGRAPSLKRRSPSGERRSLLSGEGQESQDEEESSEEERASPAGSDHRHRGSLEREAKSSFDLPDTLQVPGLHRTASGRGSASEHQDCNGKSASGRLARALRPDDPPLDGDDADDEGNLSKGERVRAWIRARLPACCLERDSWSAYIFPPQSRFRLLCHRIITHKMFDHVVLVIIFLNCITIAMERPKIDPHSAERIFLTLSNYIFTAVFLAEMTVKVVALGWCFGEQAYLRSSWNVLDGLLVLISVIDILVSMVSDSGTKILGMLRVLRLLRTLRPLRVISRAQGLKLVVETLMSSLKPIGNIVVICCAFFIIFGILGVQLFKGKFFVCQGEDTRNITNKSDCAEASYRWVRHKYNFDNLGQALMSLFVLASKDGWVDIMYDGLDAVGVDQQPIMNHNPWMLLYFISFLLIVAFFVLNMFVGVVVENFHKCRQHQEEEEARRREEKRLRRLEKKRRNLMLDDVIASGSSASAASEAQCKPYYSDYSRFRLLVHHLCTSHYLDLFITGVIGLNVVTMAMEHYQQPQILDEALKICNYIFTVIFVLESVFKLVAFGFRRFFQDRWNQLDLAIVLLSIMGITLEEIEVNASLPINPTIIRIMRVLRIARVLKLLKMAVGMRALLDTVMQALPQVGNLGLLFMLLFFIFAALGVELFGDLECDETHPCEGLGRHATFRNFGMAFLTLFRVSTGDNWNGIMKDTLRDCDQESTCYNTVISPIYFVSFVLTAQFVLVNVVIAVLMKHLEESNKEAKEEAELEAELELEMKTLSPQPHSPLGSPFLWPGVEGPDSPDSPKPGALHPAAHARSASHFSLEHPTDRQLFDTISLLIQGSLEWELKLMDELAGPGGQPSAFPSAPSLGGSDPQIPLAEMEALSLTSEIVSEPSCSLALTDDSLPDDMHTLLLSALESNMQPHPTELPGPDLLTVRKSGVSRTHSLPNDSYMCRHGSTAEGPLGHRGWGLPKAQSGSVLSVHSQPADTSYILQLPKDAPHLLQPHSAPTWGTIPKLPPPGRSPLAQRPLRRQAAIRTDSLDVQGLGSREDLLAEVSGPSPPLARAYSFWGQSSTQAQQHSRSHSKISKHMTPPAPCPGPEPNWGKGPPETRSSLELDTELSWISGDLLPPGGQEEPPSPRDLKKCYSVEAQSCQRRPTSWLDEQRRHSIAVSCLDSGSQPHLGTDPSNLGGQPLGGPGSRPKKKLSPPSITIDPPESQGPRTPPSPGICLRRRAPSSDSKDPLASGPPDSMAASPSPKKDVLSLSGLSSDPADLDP
READOUT: % Inhibition (Single Point Data) (%)

> print(dat)
                                    compound                        measurement.target                           readout  reported
 1  CC(C)(NC(=O)CN1C2CC1CN(Cc1nc3c(OC(F)F)ccc(F)c3[nH]1)C2)C(F)(F)F  Human Cav3.1 calcium channel (Homo sapiens, UniProt O43497)  % Inhibition (Single Point Data)    86.326
 2  Cc1ccnc2[nH]c(CN3CC4CCC(C3)N4CC(=O)NC(C)(C)C)nc12  Human Cav3.1 calcium channel (Homo sapiens, UniProt O43497)  % Inhibition (Single Point Data)    46.159
 3  CC(C(=O)Nc1ccc(F)c(OC(F)F)c1)N1CC2CC(C1)N2CC(=O)NC(C)(C)C (centres unmarked)  Human Cav3.1 calcium channel (Homo sapiens, UniProt O43497)  % Inhibition (Single Point Data)    100.73
 4  COc1ccc(Cl)c2nc(CN3CC4CC(C3)N4CC(=O)NC(C)(C)C(F)(F)F)[nH]c12  Human Cav3.1 calcium channel (Homo sapiens, UniProt O43497)  % Inhibition (Single Point Data)    100.03
 5  COc1ccc(F)c2[nH]c(CN3CC4CC(C3)N4CC(=O)NC(C)(C)C(F)(F)F)nc12  Human Cav3.1 calcium channel (Homo sapiens, UniProt O43497)  % Inhibition (Single Point Data)    95.323
 6  CC(C)(C)NC(=O)CN1C2CC1CN(CC(=O)Nc1cc(F)ccc1C#N)C2  Human Cav3.1 calcium channel (Homo sapiens, UniProt O43497)  % Inhibition (Single Point Data)    35.823
 7  CC1(C)CCN1C(=O)CN1C2CC1CN(Cc1nc3c(Cl)cc(F)cc3[nH]1)C2  Human Cav3.1 calcium channel (Homo sapiens, UniProt O43497)  % Inhibition (Single Point Data)    89.896
 8  COc1cc(F)cc(NC(=O)CN2CC3CC(C2)N3CC(=O)NC2(C(F)(F)F)CC2)c1  Human Cav3.1 calcium channel (Homo sapiens, UniProt O43497)  % Inhibition (Single Point Data)    82.813
 9  Fc1cc(Cl)c2nc(CN3CC4CC(C3)N4CC(F)(F)C3CCCCC3)[nH]c2c1  Human Cav3.1 calcium channel (Homo sapiens, UniProt O43497)  % Inhibition (Single Point Data)    79.996
10  CC(C)(C)NC(=O)CN1C[C@@H]2C[C@H]1CN2CC(=O)NC1CCCCC1  Human Cav3.1 calcium channel (Homo sapiens, UniProt O43497)  % Inhibition (Single Point Data)    36.292
11  COc1cc(F)cc2[nH]c(CN3CC4CC(C3)N4CC(=O)NC(C)(C)C)nc12  Human Cav3.1 calcium channel (Homo sapiens, UniProt O43497)  % Inhibition (Single Point Data)    84.695
12  Fc1cc(Cl)c2nc(CN3CC4CC(C3)N4CCC3CCC(F)(F)CC3)[nH]c2c1  Human Cav3.1 calcium channel (Homo sapiens, UniProt O43497)  % Inhibition (Single Point Data)    99.877
13  CC(C)(NC(=O)CN1C2CCC1CN(Cc1nc3c(Cl)cc(F)cc3[nH]1)C2)C(F)(F)F  Human Cav3.1 calcium channel (Homo sapiens, UniProt O43497)  % Inhibition (Single Point Data)    100.39
14  CN(CCN1C2CC1CN(Cc1nc3c(Cl)cc(F)cc3[nH]1)C2)C(=O)C1(C)CC1  Human Cav3.1 calcium channel (Homo sapiens, UniProt O43497)  % Inhibition (Single Point Data)      83.5
15  O=C(CN1CC2CC(C1)N2CC(F)(F)C1CCCCC1)Nc1cc(F)cc(Cl)c1  Human Cav3.1 calcium channel (Homo sapiens, UniProt O43497)  % Inhibition (Single Point Data)    39.507
16  CC(C)(C)NC(=O)CN1CCC(CNc2nccc3c(Cl)cc(F)cc23)CC1  Human Cav3.1 calcium channel (Homo sapiens, UniProt O43497)  % Inhibition (Single Point Data)    67.808
17  CC(C)(C(=O)NCCN1C2CC1CN(CC(=O)Nc1cc(F)cc(Cl)c1)C2)C(F)(F)F  Human Cav3.1 calcium channel (Homo sapiens, UniProt O43497)  % Inhibition (Single Point Data)    96.987
18  CC(C)(NC(=O)CN1C2CC1CN(CC(=O)Nc1cc(F)cc(OC(F)F)c1)C2)C(F)(F)F  Human Cav3.1 calcium channel (Homo sapiens, UniProt O43497)  % Inhibition (Single Point Data)    83.389
19  CC1(CCN2C3CC2CN(Cc2nc4c(Cl)cc(F)cc4[nH]2)C3)CCOCC1  Human Cav3.1 calcium channel (Homo sapiens, UniProt O43497)  % Inhibition (Single Point Data)    73.309
20  CC(C)(C)NC(=O)CN1C[C@@H]2CC[C@H]1CN2CC(=O)Nc1ccc(F)c(OC(F)F)c1  Human Cav3.1 calcium channel (Homo sapiens, UniProt O43497)  % Inhibition (Single Point Data)    73.222
21  Cc1cc(CNC(=O)CN2CC3CC(C2)N3CC(=O)NC(C)(C)C)nn1-c1ccccc1  Human Cav3.1 calcium channel (Homo sapiens, UniProt O43497)  % Inhibition (Single Point Data)    6.1482
22  COc1ccc(F)c2[nH]c(CN3CC4CC(C3)N4CC(=O)NC(C)(C)C)nc12  Human Cav3.1 calcium channel (Homo sapiens, UniProt O43497)  % Inhibition (Single Point Data)    89.419
23  Cc1cc(F)cc(NC(=O)CN2CC3CC(C2)N3CC(=O)NC2(C(F)(F)F)CC2)c1  Human Cav3.1 calcium channel (Homo sapiens, UniProt O43497)  % Inhibition (Single Point Data)    84.646
24  COc1cc(Cl)cc(NC(=O)CN2CC3CC(C2)N3CC(=O)NC(C)(C)C)c1  Human Cav3.1 calcium channel (Homo sapiens, UniProt O43497)  % Inhibition (Single Point Data)    103.09
25  Cc1cc(F)cc(NC(=O)CN2C[C@@H]3C[C@H]2CN3CC(=O)NC(C)(C)C)c1  Human Cav3.1 calcium channel (Homo sapiens, UniProt O43497)  % Inhibition (Single Point Data)    71.467
26  COCC(C)(C)NC(=O)CN1C2CCC1CN(Cc1nc3c(Cl)cc(F)cc3[nH]1)C2  Human Cav3.1 calcium channel (Homo sapiens, UniProt O43497)  % Inhibition (Single Point Data)    96.659
27  CC(C)(NC(=O)CN1C2CC1CN(CC(=O)Nc1ccc(F)c(Cl)c1)C2)C(F)(F)F  Human Cav3.1 calcium channel (Homo sapiens, UniProt O43497)  % Inhibition (Single Point Data)    101.68
28  CC1(C(=O)OCCN2C3CC2CN(Cc2nc4c(Cl)cc(F)cc4[nH]2)C3)CC1  Human Cav3.1 calcium channel (Homo sapiens, UniProt O43497)  % Inhibition (Single Point Data)    78.298
29  CC(C)(NC(=O)CN1C2CC1CN(Cc1nc3c(F)ccc(F)c3[nH]1)C2)C(F)(F)F  Human Cav3.1 calcium channel (Homo sapiens, UniProt O43497)  % Inhibition (Single Point Data)    87.157
30  CC(C)(C)C(O)CN1C2CC1CN(CC(=O)NC13CC4CC(CC(C4)C1)C3)C2 (centres unmarked)  Human Cav3.1 calcium channel (Homo sapiens, UniProt O43497)  % Inhibition (Single Point Data)    38.151
31  COc1cc(F)cc2[nH]c(CN3CC4CC(C3)N4CCC3CCC(F)(F)CC3)nc12  Human Cav3.1 calcium channel (Homo sapiens, UniProt O43497)  % Inhibition (Single Point Data)    92.557
32  CC(C)(C)NC(=O)CN1C2CC1CN(Cc1nc3c(Cl)cc(N)cc3o1)C2  Human Cav3.1 calcium channel (Homo sapiens, UniProt O43497)  % Inhibition (Single Point Data)    35.454
